test: Displacement of [3H]semotiadil from L-type calcium channel of rabbit skeletal muscle; type: tissue-based, Oryctolagus cuniculus, Muscle tissue
Kindly state Ki for each of the entries shown.
Lab book: enter the figure in nM, no units written.

Prompt: Suppose we examine the compound COc1ccc(OCCCN(C)CCOc2ccc3c(c2)OCO3)c([C@H]2Sc3ccccc3N(C)C2=O)c1 ; what Ki value has been reported?
Completion: 121

Prompt: Now consider COc1ccc(OCCCN(C)CCOc2cccc(N=[N+]=[N-])c2)c([C@H]2Sc3ccccc3N(C)C2=O)c1 and answer again.
Completion: 2670
